assay: PK studies of topical compositions: systemic plasma and skin concentrations, single and repeat dose; assay type: in vivo; details: plasma, topical; administered to an area that limits oral exposure from licking
Assay Readout: bioavailability

// bioavailability lookup, key: CNS(=O)(=O)C[C@H]1CC[C@H](N(C)c2ncnc3[nH]ccc23)CC1 < 5%
